Each recorded value in this set is attributed to patent US9532990B2.

assay: Toxicokinetic (TK) study in rats, 28-day; assay type: in vivo, rat; settings: male, rat, in vivo, 100 mg/kg, Study Day 28, Male, read-out: AUC0-24 h
Measurement Name: AUC(0-t) (ng·h/mL)
Numbers only, in ng·h/mL.

AUC(0-t) lookup needed for "C=CC(=O)N1CC[C@@H](n2nc(-c3ccc(Oc4c(F)c(F)cc(F)c4F)cc3F)c3c(N)ncnc32)C1" , thanks.
30300

----------
target: BTK wild type (Homo sapiens (Human)); assay: Inhibition assay of BTK kinase activity (HTRF); type: biochemical; settings: read-out: BTK IC50
pIC50: −log10 of the molar value.
# pIC50 >= 7 gives 1, anything below gives -1

>>> category("CC(C)(CO)C(=O)C(=O)N1CC[C@@H](n2nc(-c3ccc(Oc4c(F)c(F)cc(F)c4F)cc3F)c3c(N)ncnc32)C1")
-1
>>> category("COC(=O)NC(=O)/C=C\\C(=O)N1CCCC(n2nc(-c3ccc(Oc4c(F)c(F)cc(F)c4F)cc3F)c3c(N)ncnc32)C1 (centres unmarked)")
1
>>> category("Nc1ncnc2c1c(-c1ccc(Oc3c(F)c(F)cc(F)c3F)cc1F)nn2[C@@H]1CCN(C(=O)C(Cl)Cl)C1")
-1
>>> category("C=CC(=O)N1CCCC(n2nc(-c3ccc(Oc4c(F)c(F)cc(F)c4F)cc3F)c3c(N)ncnc32)C1 (centres unmarked)")
1
>>> category("CN(C)CC(=O)N1CCCC(n2nc(-c3ccc(Oc4c(F)c(F)cc(F)c4F)cc3F)c3c(N)ncnc32)C1 (centres unmarked)")
-1

Say whether "Nc1ncnc2c1c(-c1ccc(Oc3c(F)c(F)cc(F)c3F)cc1F)nn2[C@@H]1CCN(C(=O)CF)C1" shows pIC50 of 7 or more.
1

Hi team, for "Nc1ncnc2c1c(-c1ccc(Oc3c(F)c(F)cc(F)c3F)cc1F)nn2[C@@H]1CCN(C(=O)C(=O)C(F)(F)F)C1" , is the recorded pIC50 at or above 7?
-1

Does the reported pIC50 for "Nc1ncnc2c1c(-c1ccc(Oc3c(F)c(F)cc(F)c3F)cc1F)nn2[C@@H]1CCN(C(=O)c2ncco2)C1" fall at or above the 7 mark?
-1

Please tell me: is the compound "Nc1ncnc2c1c(-c1ccc(Oc3c(F)c(F)cc(F)c3F)cc1F)nn2CCCN1C(=O)C=CC1=O" at or over 7 in terms of pIC50?
-1

pIC50 >= 7 for C=CC(=O)N1CCCC(n2nc(-c3ccc(C(=O)c4ccc(F)cc4)cc3F)c3c(N)ncnc32)C1 (centres unmarked) ?
1

Quick check, pIC50 >= 7? "CC(C)C(=O)C(=O)N1CC[C@@H](n2nc(-c3ccc(Oc4c(F)c(F)cc(F)c4F)cc3F)c3c(N)ncnc32)C1"
-1

----------
assay: Pharmacokinetic study in Beagle dogs; assay type: in vivo; conditions: dog, plasma, PO, 5 mg/kg, mean
Measurement Name: Tmax (h)
One number for each entry, in h.

Which Tmax reading was recorded for the compound "C=CC(=O)N1CC[C@@H](n2nc(-c3ccc(Oc4c(F)c(F)cc(F)c4F)cc3F)c3c(N)ncnc32)C1" ?
1.17

----------
target: BTK wild type (Homo sapiens (Human), UniProt Q06187); experiment: Inhibition assay of BTK kinase activity (HTRF); assay type: biochemical; conditions: read-out: BTK IC50
Sequence (Q06187 whole entry): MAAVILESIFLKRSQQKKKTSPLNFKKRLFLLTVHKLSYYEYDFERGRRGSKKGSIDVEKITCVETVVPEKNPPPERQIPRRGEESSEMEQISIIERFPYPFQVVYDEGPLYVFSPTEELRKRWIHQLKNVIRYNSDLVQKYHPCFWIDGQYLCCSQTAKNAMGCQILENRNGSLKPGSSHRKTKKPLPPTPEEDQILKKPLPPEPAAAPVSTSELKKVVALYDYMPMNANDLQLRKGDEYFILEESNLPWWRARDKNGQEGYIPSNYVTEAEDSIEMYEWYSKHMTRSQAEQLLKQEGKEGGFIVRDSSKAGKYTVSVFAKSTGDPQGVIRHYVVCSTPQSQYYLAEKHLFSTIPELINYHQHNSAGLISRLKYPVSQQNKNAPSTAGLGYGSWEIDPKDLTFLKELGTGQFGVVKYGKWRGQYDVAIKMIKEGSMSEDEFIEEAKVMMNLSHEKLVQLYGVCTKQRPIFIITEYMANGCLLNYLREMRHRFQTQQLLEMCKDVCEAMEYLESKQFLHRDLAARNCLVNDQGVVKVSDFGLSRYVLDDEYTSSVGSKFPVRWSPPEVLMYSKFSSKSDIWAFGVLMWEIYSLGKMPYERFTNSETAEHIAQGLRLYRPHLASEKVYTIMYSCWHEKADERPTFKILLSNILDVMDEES
Measurement Name: pIC50
Answers are plain numbers, as −log10 of the molar value.

A selection of reference data follows.
>>> value_observed("C=CC(=O)N1CCC(n2nc(-c3ccc(Oc4c(F)c(F)cc(F)c4F)cc3F)c3c(N)ncnc32)CC1 [Compound 27]")
6.65
>>> value_observed("Nc1ncnc2c1c(-c1ccc(Oc3c(F)c(F)cc(F)c3F)cc1F)nn2C1CCCN(C(=O)c2cccnc2)C1 (stereo not shown) [Compound 60]")
6.24
>>> value_observed("C=CC(=O)N1CCC(Cn2nc(-c3ccc(Oc4c(F)c(F)cc(F)c4F)cc3F)c3c(N)ncnc32)C1 (stereo not shown) [Compound 29]")
7.59
>>> value_observed("C=CC(=O)NC1CCC(Cn2nc(-c3ccc(Oc4c(F)c(F)cc(F)c4F)cc3F)c3c(N)ncnc32)C1 (stereo not shown) [Compound 32]")
5.14
>>> value_observed("Nc1ncnc2c1c(-c1ccc(Oc3c(F)c(F)cc(F)c3F)cc1F)nn2C1CCCN(C(=O)c2c[nH]cn2)C1 (stereo not shown) [Compound 59]")
6.76
>>> value_observed("C=CC(=O)N(C)CCn1nc(-c2ccc(Oc3c(F)c(F)cc(F)c3F)cc2F)c2c(N)ncnc21 [Compound 85]")
7.77

We now examine a further compound.
Reported pIC50 for C=CS(=O)(=O)N1CCCC(n2nc(-c3ccc(C(=O)c4cccc(F)c4)cc3F)c3c(N)ncnc32)C1 (stereo not shown) [Compound 8] : what is it?
8.70
